# credit: patent US20260317437

The following binders are shown together with reported Kd values.
- experimental system: GCGR extracellular domain (human, UniProt P47871)
- Sequence (P47871 26-477): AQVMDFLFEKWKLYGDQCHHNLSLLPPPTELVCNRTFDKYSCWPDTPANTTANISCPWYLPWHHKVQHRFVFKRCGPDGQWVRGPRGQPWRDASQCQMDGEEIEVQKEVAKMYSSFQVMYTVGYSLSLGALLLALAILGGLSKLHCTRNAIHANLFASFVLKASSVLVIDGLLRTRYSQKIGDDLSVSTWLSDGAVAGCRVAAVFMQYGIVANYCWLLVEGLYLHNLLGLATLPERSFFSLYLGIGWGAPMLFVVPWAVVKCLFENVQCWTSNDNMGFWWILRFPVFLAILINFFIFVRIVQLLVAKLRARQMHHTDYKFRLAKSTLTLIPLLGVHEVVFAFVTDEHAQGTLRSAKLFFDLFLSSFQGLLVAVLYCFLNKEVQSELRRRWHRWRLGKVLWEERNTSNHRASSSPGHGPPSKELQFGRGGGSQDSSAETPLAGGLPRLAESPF
- measurement protocol: SPR

binder	Kd / nM
VL Y94A (antibody, V domains shown) VH: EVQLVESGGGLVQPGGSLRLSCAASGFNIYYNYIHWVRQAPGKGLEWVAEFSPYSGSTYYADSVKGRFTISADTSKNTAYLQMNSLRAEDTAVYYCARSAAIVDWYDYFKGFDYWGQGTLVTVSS VL: DIQMTQSPSSLSASVGDRVTITCRASQSVSSAVAWYQQKPGKAPKLLIYSASSLYSGVPSRFSGSRSGTDFTLTISSLQPEDFATYYCQQYGSALYTFGQGTKVEIK	2.64
VL Y94R (antibody, V domains shown) VH: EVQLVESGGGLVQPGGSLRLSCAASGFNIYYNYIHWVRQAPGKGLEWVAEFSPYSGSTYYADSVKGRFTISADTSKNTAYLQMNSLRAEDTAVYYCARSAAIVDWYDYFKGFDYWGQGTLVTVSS VL: DIQMTQSPSSLSASVGDRVTITCRASQSVSSAVAWYQQKPGKAPKLLIYSASSLYSGVPSRFSGSRSGTDFTLTISSLQPEDFATYYCQQYGSRLYTFGQGTKVEIK	1.41
VL Y94F (antibody, V domains shown) VH: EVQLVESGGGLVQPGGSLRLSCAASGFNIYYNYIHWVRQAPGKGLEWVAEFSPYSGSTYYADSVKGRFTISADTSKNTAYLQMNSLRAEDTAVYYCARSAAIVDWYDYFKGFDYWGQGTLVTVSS VL: DIQMTQSPSSLSASVGDRVTITCRASQSVSSAVAWYQQKPGKAPKLLIYSASSLYSGVPSRFSGSRSGTDFTLTISSLQPEDFATYYCQQYGSFLYTFGQGTKVEIK	2.23
VH Y31F (antibody, V domains shown) VH: EVQLVESGGGLVQPGGSLRLSCAASGFNIYFNYIHWVRQAPGKGLEWVAEFSPYSGSTYYADSVKGRFTISADTSKNTAYLQMNSLRAEDTAVYYCARSAAIVDWYDYFKGFDYWGQGTLVTVSS VL: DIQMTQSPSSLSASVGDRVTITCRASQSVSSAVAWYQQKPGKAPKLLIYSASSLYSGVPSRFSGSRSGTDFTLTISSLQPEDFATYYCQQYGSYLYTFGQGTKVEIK	6.94
VL S93D (antibody, V domains shown) VH: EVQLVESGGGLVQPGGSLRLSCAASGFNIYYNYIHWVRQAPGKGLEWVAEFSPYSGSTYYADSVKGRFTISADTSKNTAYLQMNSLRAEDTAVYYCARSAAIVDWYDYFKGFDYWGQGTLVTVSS VL: DIQMTQSPSSLSASVGDRVTITCRASQSVSSAVAWYQQKPGKAPKLLIYSASSLYSGVPSRFSGSRSGTDFTLTISSLQPEDFATYYCQQYGDYLYTFGQGTKVEIK	1.3
